system: S. aureus
For each record, write down the corresponding MIC.

Take a look at these entries with their results.
N#CC(=NNc1cc(C(F)(F)F)cc(C(F)(F)F)c1)C(=O)c1ccccc1 : 0.5 to 10 µM
CSc1ccc(NN=C(C#N)C(=O)c2ccc(Cl)cc2)cc1 : > 10 µM
CS(=O)(=O)c1ccc(NN=C(C#N)C(=O)c2ccc(Cl)cc2)cc1 : > 10 µM
N#CC(=NNc1ccc([N+](=O)[O-])cc1)C(=O)c1ccccc1 : 0.5 to 10 µM

Field request: MIC | item: CC(=O)N(N=C(C#N)C(=O)c1ccc(Cl)cc1)c1ccc([N+](=O)[O-])cc1
> 10 µM
